Biological target: Thrombin (bovine) (Bos taurus, UniProt P00735)
Construct: Thrombin (bovine)
Assay: Enzyme kinetic determination of Ki with chromogenic substrate, thrombin
Type: biochemical
Conditions: bovine thrombin, Tris buffer pH 8.0, 25° C., Pefachrome tPA; read-out: Ki (nM) Thrombin
Field: Ki. Provide a value for each of the compounds that follow.
Write the answer as a number in nM, unit excluded.

[ask] Would you kindly share the measured Ki for NCc1ccc(Cl)cc1CNC(=O)CNC(=O)C(CCc1cccc[n+]1[O-])NS(=O)(=O)Cc1ccc(C(=O)O)cc1 (centres unmarked) ?
[reply] 1300

[ask] Would you kindly share the measured Ki for COC(=O)c1ccc(CS(=O)(=O)NC(CCc2ccccn2)C(=O)NCC(=O)NCc2cc(Cl)ccc2CN)cc1 (centres unmarked) ?
[reply] 100

[ask] Would you kindly share the measured Ki for NCc1ccc(Cl)cc1CNC(=O)[C@@H]1CCCN1C(=O)C(CCc1cccc[n+]1[O-])NC(=O)C(=O)O (some centres unmarked) ?
[reply] 43

[ask] Would you kindly share the measured Ki for COC(=O)CC[C@H](NC(=O)[C@@H](CCc1cccc[n+]1[O-])NS(=O)(=O)Cc1ccccc1)C(=O)NCc1cc(Cl)ccc1CN ?
[reply] 180

[ask] Would you kindly share the measured Ki for COC(=O)c1ccc(CS(=O)(=O)NC(CCc2cccc[n+]2[O-])C(=O)N[C@@H](CO)C(=O)NCc2cc(Cl)ccc2CN)cc1 (some centres unmarked) ?
[reply] 930

[ask] Would you kindly share the measured Ki for NCc1ccc(Cl)cc1CNC(=O)CNC(=O)C(CCc1ccccn1)NS(=O)(=O)Cc1cccnc1 (centres unmarked) ?
[reply] 140

[ask] Would you kindly share the measured Ki for NCc1ccc(Cl)cc1CNC(=O)CNC(=O)C(CCc1cccc[n+]1[O-])NS(=O)(=O)Cc1ccc[n+]([O-])c1 (centres unmarked) ?
[reply] 2500

[ask] Would you kindly share the measured Ki for NCc1ccc(Cl)cc1CNC(=O)[C@H](CN)NC(=O)[C@@H](CCc1cccc[n+]1[O-])NS(=O)(=O)Cc1ccccc1 ?
[reply] 750

[ask] Would you kindly share the measured Ki for NCc1ccc(Cl)cc1CNC(=O)[C@H](CO)NC(=O)[C@@H](CCc1cccc[n+]1[O-])NS(=O)(=O)Cc1ccc(CC(=O)O)cc1 ?
[reply] 540

[ask] Would you kindly share the measured Ki for CC(C)OC(=O)CS(=O)(=O)NC(CCc1ccccn1)C(=O)NCC(=O)NCc1cc(Cl)ccc1CN (centres unmarked) ?
[reply] 66

[ask] Would you kindly share the measured Ki for COC(=O)Cc1ccc(CS(=O)(=O)NC(CCc2ccccn2)C(=O)N[C@@H](CO)C(=O)NCc2cc(Cl)ccc2CN)cc1 (some centres unmarked) ?
[reply] 430

[ask] Would you kindly share the measured Ki for NCc1ccc(Cl)cc1CNC(=O)CNC(=O)[C@H](O)CCc1ccccc1 ?
[reply] 1600

[ask] Would you kindly share the measured Ki for NCc1ccc(Cl)cc1CNC(=O)CNC(=O)C(CCc1ccccn1)NS(=O)(=O)Cc1ccc(C(=O)O)cc1 (centres unmarked) ?
[reply] 330

[ask] Would you kindly share the measured Ki for NCc1ccc(Cl)cc1CNC(=O)CNC(=O)C(CCc1ccccn1)NS(=O)(=O)Cc1ccc(CC(=O)O)cc1 (centres unmarked) ?
[reply] 140
